The origin of these recorded values is patent US20250186614A1.

# Tested on: Jurkat cells
# MEASUREMENT_PROTOCOL: Tacrolimus dose response of FKBP13-AcGFP-mCherry constructs stably transduced into Jurkat cells, GFP MFI by flow cytometry
# Type: cell-based
# DETAILS: tacrolimus; FIG. 36
MEASURED_PROPERTY: FC

{"MOLECULE": "FKBP-117: FKBP13 DRD Q72R, Q84E, A117W, V85R; SEQ ID NO: 67 (protein, Description of sequence: FKBP13-AcGFP-mCherry Fusion; Construct Name: FKBP-117; FKBP13 DRD in Construct : FKBP13 (mutated to match FKBP12 active site Q72R Q84E A117W) (DRD V85R)) HCPIKSRKGDVLHMHYTGKLEDGTEFDSSLPRNQPFVFSLGTGERIKGWDQGLLGMCEGEKRKLVIPSELGYGERGWPPKIPGGATLVFEVELLKIER", "MEASURED_PROPERTY": "FC", "RECORDED_VALUE": 24.07}
{"MOLECULE": "FKBP-195: combinatorial FKBP13 mutant construct of Table 10, carries K135Y (protein, Description of sequence: Construct Name: FKBP-195; Mutation(s): Q72R Q84E A117W V85R DRD K135Y) HCPIKSRKGDVLHMHYTGKLEDGTEFDSSLPRNQPFVFSLGTGERIKGWDQGLLGMCEGEKRKLVIPSELGYGERGWPPKIPGGATLVFEVELLYIER", "MEASURED_PROPERTY": "FC", "RECORDED_VALUE": 89.61}
{"MOLECULE": "FKBP-251: combinatorial FKBP13 mutant construct of Table 10 (protein, Description of sequence: Construct Name: FKBP-251; Mutation(s): Q72R Q84E A117W V85R DRD E130F) HCPIKSRKGDVLHMHYTGKLEDGTEFDSSLPRNQPFVFSLGTGERIKGWDQGLLGMCEGEKRKLVIPSELGYGERGWPPKIPGGATLVFFVELLKIER", "MEASURED_PROPERTY": "FC", "RECORDED_VALUE": 92.03}
{"MOLECULE": "FKBP-280: FKBP13 DRD-AcGFP construct of Table 10 (protein, Description of sequence: Construct Name: FKBP-280; Mutation(s): Q72R Q74R Q84E A117W V85R K135Y K120I) HCPIKSRKGDVLHMHYTGKLEDGTEFDSSLPRNRPFVFSLGTGERIKGWDQGLLGMCEGEKRKLVIPSELGYGERGWPPIIPGGATLVFEVELLYIER", "MEASURED_PROPERTY": "FC", "RECORDED_VALUE": 68.34}
